These entries and their values trace back to paper PMC5363963.

Target: synthetic amyloid fibrils composed of recombinant Vλ6 protein Wil
Assay: SPR
Square brackets hold non-standard residues; d marks the D form. Ends that are not written are not given here.
measured-attribute: ka2 (two-state model, second step) (s⁻¹)
One number for each entry, in s⁻¹.

Some binders with known ka2 (two-state model, second step) results, for comparison:
So, GGGYSKAQKAPAKQAKQPQKAQKAPAKQAKQ [peptide p5(Pro3)] ? Its ka2 (two-state model, second step) was 0.0122

So, VYKVKTKVKTKVKTKVKT [peptide p5(sheet)] ? Its ka2 (two-state model, second step) was 0.007

So, GGGYSKGGKGGGKGGKGGGKGGKGGGKGGKG [peptide p5(coil)] ? Its ka2 (two-state model, second step) was 7.9e-06

So, GGG[dY][dS][dK][dA][dQ][dK][dA][dQ][dA][dK][dQ][dA][dK][dQ][dA][dQ][dK][dA][dQ][dK][dA][dQ][dA][dK][dQ][dA][dK][dQ] [peptide p5(D)] ? Its ka2 (two-state model, second step) was 0.0074

More entries:
So, GGGYSKAQKAQAKQAKQAQKAQKAQAKQAKQ [peptide p5] ? Its ka2 (two-state model, second step) was 0.0315
